- System: MOLT-4
- test.details: NCI tumour cell line growth inhibition, 48 h
Active and inactive are the calls of the source. No stated cut-off is given here; in the data, active = GI50 up to about 1.1 µM and inactive = higher.
Parameter call: string, one of active, inactive

Task: Could you please tell me the result logged for `Cc1occc1C(=S)Nc1ccc(Cl)c(C(=O)OC(C(C)C)C(C)C)c1` in this assay?
Result: inactive

Task: Could you please tell me the result logged for `O=C(C=P(c1ccccc1)(c1ccccc1)c1ccccc1)c1cccc(-c2cccc([N+](=O)[O-])c2)c1` in this assay?
Result: inactive

Task: Could you please tell me the result logged for `Cc1cc(-c2nc3ccccc3s2)ccc1NC(=O)[C@H](C)N` in this assay?
Result: inactive

Task: Could you please tell me the result logged for `CC[C@H]1CN2CCc3cc(OC)c(OC)cc3[C@@H]2C[C@@H]1C[C@H]1NCCc2c1[nH]c1ccc(O)cc21` in this assay?
Result: active

Task: Could you please tell me the result logged for `CC(=O)NNC(=S)N/C=C1/C(=O)Oc2ccccc2C1=O` in this assay?
Result: inactive
